# assayed.system: T1, 14-3-3γ (full length) (human, UniProt P61981 1-247)
# T1 construct: 14-3-3 protein gamma, human, full length; Expressed from a pPRoeX-Htb vector; also called 14-3-3 isoform γ; source: E. coli NiCo21(DE3), purified (nickel column, TEV cleavage, second nickel column, SEC)
# T1 sequence (looked up): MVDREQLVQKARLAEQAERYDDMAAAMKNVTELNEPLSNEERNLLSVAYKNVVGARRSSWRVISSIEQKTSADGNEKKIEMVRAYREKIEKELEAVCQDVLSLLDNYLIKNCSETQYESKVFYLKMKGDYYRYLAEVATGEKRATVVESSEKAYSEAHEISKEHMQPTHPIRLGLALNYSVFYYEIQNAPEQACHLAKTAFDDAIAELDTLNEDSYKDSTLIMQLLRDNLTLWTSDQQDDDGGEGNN
# assay.notes: fluorescence polarisation; 14-3-3 isoforms (full length) serially diluted twofold in the presence of 10 nM FITC-labelled peptide; 50 mM Tris pH 7.5, 150 mM NaCl, 5 mM MgCl2, 0.05% Tween-20 (no reducing agent listed); one-site specific binding model
# condition: both partners purified
Non-standard residues stand in square brackets, D forms with d. No end group written: not given here. *: point of attachment. FITC = O=C1OC2(c3ccc(O)cc3Oc3cc(O)ccc32)c2ccc(NC(=S)*)cc21; pS = N[C@@H](COP(=O)(O)O)C(=O)O; Ahx = NCCCCCC(=O)O
metric.name: Kd (nM)
Reply numerically in nM, unit not repeated.

Request: What does the record list as Kd for {FITC-Ahx}-LLRSH[pS]MPSAAC (also: phosphoserine at 542, position not mapped, Schnurri-3 (SHN3, transcription factor HIVEP3), human, 12-mer around phosphorylated Ser542; also called SHN3pS542-FITC; the FITC-labelled form; source: synthetic peptide, bought: GenScript (purity >95%)) [SHN3pS542 peptide, N-terminally FITC-Ahx-labelled] ?
Response: 780

// provenance: paper PMC8329713
